Assay: Isothermal equilibrium denaturation in guanidine HCl monitored by CD
Format: physicochemical
Settings: relative to WT*; negative value = more stable
Criterion: ΔΔG strictly less than -0.7 kcal/mol. Met: YES. Not met: NO.

Ask | Report whether reported ΔΔG is lower than -0.7 kcal/mol (strictly) for SYM6/Δ104-106: SYM6 FGF-1 mutant plus Ala103→Gly/ΔGlu104/ΔLys105/ΔAsn106 (protein, UniProt P05230 16-155, looked up, variant A103G E104* K105* N106*, SYM6 background mutations, SYM6 FGF-1 mutant plus Ala103→Gly/ΔGlu104/ΔLys105/ΔAsn106) Fibroblast growth factor 1: FNLPPGNYKKPKLLYCSNGGHFLRILPDGTVDGTRDRSDQHIQLQLSAESVGEVYIKSTETGQYLAMDTDGLLYGSQTPNEECLFLERLEENHYNTYISKKHGWFVGLKKNGSCKRGPRTHYGQKAILFLPLPVSSD
Reply | NO

Ask | Report whether reported ΔΔG is lower than -0.7 kcal/mol (strictly) for SYM5/Δ120-122: SYM5 FGF-1 mutant plus Arg119→Gly/ΔGly120/ΔPro121/ΔArg122, SEQ ID NO: 2 (protein, Human FGF-1 mutant SYM5D120-122) FNLPPGNYKKPKLLYCSNGGHFLRILPDGTVDGTRDRSDQHIQFQLSAESVGEVYIKSTETGQYLAMDTDGLVYGSQTPNEECLFLERLEENHYNTYISKKHAEKNWFLGIKKNGSVKGTHYGQKAILFLPLPVSSD
Reply | NO

Ask | Report whether reported ΔΔG is lower than -0.7 kcal/mol (strictly) for SYM5/Δ104-106: SYM5 FGF-1 mutant plus Ala103→Gly/ΔGlu104/ΔLys105/ΔAsn106 (protein, UniProt P05230 16-155, looked up, variant L44F L73V V109L L111I C117V A103G del104-106) Fibroblast growth factor 1: FNLPPGNYKKPKLLYCSNGGHFLRILPDGTVDGTRDRSDQHIQFQLSAESVGEVYIKSTETGQYLAMDTDGLVYGSQTPNEECLFLERLEENHYNTYISKKHGWFLGIKKNGSVKRGPRTHYGQKAILFLPLPVSSD
Reply | YES

Ask | Report whether reported ΔΔG is lower than -0.7 kcal/mol (strictly) for SYM5/ΔΔ: SYM5 FGF-1 mutant plus both Δ104-106 and Δ120-122 deletion mutations (protein, UniProt P05230 16-155, looked up, variant L44F L73V V109L L111I C117V A103G del104-106 R119G del120-122) Fibroblast growth factor 1: FNLPPGNYKKPKLLYCSNGGHFLRILPDGTVDGTRDRSDQHIQFQLSAESVGEVYIKSTETGQYLAMDTDGLVYGSQTPNEECLFLERLEENHYNTYISKKHGWFLGIKKNGSVKGTHYGQKAILFLPLPVSSD
Reply | YES

Ask | Report whether reported ΔΔG is lower than -0.7 kcal/mol (strictly) for SYM6/Δ120-122: SYM6 FGF-1 mutant plus Arg119→Gly/ΔGly120/ΔPro121/ΔArg122 (protein, UniProt P05230 16-155, looked up, variant L44F M67I L73V V109L L111I C117V R119G del120-122) Fibroblast growth factor 1: FNLPPGNYKKPKLLYCSNGGHFLRILPDGTVDGTRDRSDQHIQFQLSAESVGEVYIKSTETGQYLAIDTDGLVYGSQTPNEECLFLERLEENHYNTYISKKHAEKNWFLGIKKNGSVKGTHYGQKAILFLPLPVSSD
Reply | NO

Ask | Report whether reported ΔΔG is lower than -0.7 kcal/mol (strictly) for SYM5: FGF-1 core mutant Leu44→Phe/Leu73→Val/Val109→Leu/Leu111→Ile/Cys117→Val (protein, UniProt P05230 16-155, looked up, variant L44F L73V V109L L111I C117V) Fibroblast growth factor 1: FNLPPGNYKKPKLLYCSNGGHFLRILPDGTVDGTRDRSDQHIQFQLSAESVGEVYIKSTETGQYLAMDTDGLVYGSQTPNEECLFLERLEENHYNTYISKKHAEKNWFLGIKKNGSVKRGPRTHYGQKAILFLPLPVSSD
Reply | NO

Ask | Report whether reported ΔΔG is lower than -0.7 kcal/mol (strictly) for SYM6/ΔΔ: SYM6 FGF-1 mutant plus both Δ104-106 and Δ120-122 deletion mutations, SEQ ID NO: 1 (protein, Human FGF-1 mutant SYM6DD) FNLPPGNYKKPKLLYCSNGGHFLRILPDGTVDGTRDRSDQHIQFQLSAESVGEVYIKSTETGQYLAIDTDGLVYGSQTPNEECLFLERLEENHYNTYISKKHGWFLGIKKNGSVKGTHYGQKAILFLPLPVSSD
Reply | YES
